Source listed as ChEMBL document CHEMBL3853294.

Below, each entry is listed alongside its reported inhibition at 72 h, 10 µM.
- EXPERIMENT SUMMARY: Growth inhibition of human BT/LapR1.0 cells at 10 uM after 72 hrs by cell titer-glo based luminescence assay
- ASSAY CONDITIONS: read-out: GI
Numeric answer only, unit % assumed.

Example compounds with recorded inhibition at 72 h, 10 µM:
COMPOUND	MEASUREMENT UNIT	inhibition at 72 h, 10 µM
COc1cc(/C=C/C(=O)NC(CC(C)(C)C)NC(=S)Nc2ccccc2)cc(OC)c1OC (centres undefined)	%	40.9
CC(C)C(NC(=O)/C=C/c1ccccc1)NC(=S)NC1CCCCC1 (centres undefined)	%	13.3

Requested field: inhibition at 72 h, 10 µM. Item: COc1cc(/C=C/C(=O)NC(NC(=S)NC2CCCCC2)C(C)(C)C)cc(OC)c1OC (centres undefined) 39.8

Requested field: inhibition at 72 h, 10 µM. Item: CC(C)CC(NC(=O)/C=C/c1ccccc1)NC(=S)Nc1ccccc1 (centres undefined) 13.6

###

- EXPERIMENT SUMMARY: Growth inhibition of human BT/LapR1.0 cells at 10 uM after 72 hrs by cell titer-glo based luminescence assay
- ASSAY CONDITIONS: read-out: GI
Below, each entry is listed alongside its reported inhibition at 72 h, 10 µM.
Numeric answer only, unit % assumed.

MOLECULE	DATA VALUE
CNC(=S)NC(CC(C)C)NC(=O)/C=C/c1cc(OC)c(OC)c(OC)c1 (stereo not given)	13
COc1cc(/C=C/C(=O)NC(NC(=O)Nc2ccccn2)C(C)C)cc(OC)c1OC (stereo not given)	18.2
COc1cc(/C=C/C(=O)NC(CC(C)C)NC(=S)NC2CCCCC2)cc(OC)c1OC (stereo not given)	38.8
O=C(/C=C/c1ccccc1)NC(NC(=S)Nc1ccccn1)C1CC1 (stereo not given)	6
CC(C)CC(NC(=O)/C=C/c1ccccc1)NC(=S)NC1CCCCC1 (stereo not given)	19.8
CC(C)(C)C(NC(=O)/C=C/c1ccccc1)NC(=S)NC1CCCCC1 (stereo not given)	34.3
CC(C)(C)C(NC(=O)/C=C/c1ccccc1)NC(=S)Nc1ccccc1 (stereo not given)	11.4
COc1cc(/C=C/C(=O)NC(NC(=S)Nc2cccnc2)C2CC2)cc(OC)c1OC (stereo not given)	12.3

Requested field: inhibition at 72 h, 10 µM. Item: Cc1ccccc1NC(=S)NC(CC(C)(C)C)NC(=O)/C=C/c1ccccc1 (stereo not given) 18.9

Requested field: inhibition at 72 h, 10 µM. Item: Cc1ccccc1NC(=S)NC(NC(=O)/C=C/c1ccccc1)C1CC1 (stereo not given) 8.7

###

- Tested on: BT-474
- EXPERIMENT SUMMARY: Potentiation of lapatinib-induced growth inhibition of human BT474 cells at 10 uM after 72 hrs by cell titer-glo based luminescence assay
- Assay type: functional
- ASSAY CONDITIONS: BT-474, 72 h, read-out: GI
Below, each entry is listed alongside its reported inhibition of growth at 10 µM.
Numeric answer only, unit % assumed.

Example molecules with recorded inhibition of growth at 10 µM:
MOLECULE	DATA VALUE
CC(C)(C)C(NC(=O)/C=C/c1ccccc1)NC(=S)Nc1ccccc1 (stereo not given)	83.5
COc1cc(/C=C/C(=O)NC(NC(=S)Nc2cccnc2)C(C)(C)C)cc(OC)c1OC (stereo not given)	84.7
CC(C)CC(NC(=O)/C=C/c1ccccc1)NC(=S)Nc1ccccc1 (stereo not given)	85

Requested field: inhibition of growth at 10 µM. Item: COc1cc(/C=C/C(=O)NC(NC(=O)Nc2ccccc2)C(C)C)cc(OC)c1OC (stereo not given) 79.1

Requested field: inhibition of growth at 10 µM. Item: COc1cc(/C=C/C(=O)NC(NC(=S)NC2CCCCC2)C(C)(C)C)cc(OC)c1OC (stereo not given) 87.3
